Tested on: LG0703-F948-PDC complex spheroid viability
Assay: Anticancer human tumor LG0703-F948-PDC patient-derived lung adenocarcinoma cell line growth inhibition [RAS]
Conditions: curve of first compound; second compound 0.003 µM
Listed next: entries and their corresponding IC50.

compound	system	result type	result
CCc1c2c(nc3ccc(O)cc13)-c1cc3c(c(=O)n1C2)COC(=O)[C@]3(O)CC + CCn1c(-c2cc(N3CCN(C)CC3)cnc2C(C)OC)c2c3cc(ccc31)-c1csc(n1)CC(NC(=O)C1CC1C)C(=O)N1CCCC(N1)C(=O)OCC(C)(C)C2	LG0703-F948-PDC complex spheroid viability	IC50	< 0.000949 µM
Nc1ccn(C2OC(CO)C(O)C2(F)F)c(=O)n1 (configuration not stated) + CCn1c(-c2cc(N3CCN(C)CC3)cnc2C(C)OC)c2c3cc(ccc31)-c1csc(n1)CC(NC(=O)C1CC1C)C(=O)N1CCCC(N1)C(=O)OCC(C)(C)C2	LG0703-F948-PDC complex spheroid viability	IC50	< 0.00316 µM
C[C@@H](NC(=O)c1ncnc(N)c1Cl)c1ncc(C(=O)Nc2cc(C(F)(F)F)c(Cl)cn2)s1 + CCn1c(-c2cccnc2C(C)OC)c2c3cc(ccc31)N1CCOC(CC(NC(=O)C(C(C)C)N(C)C(=O)C3(F)CCN(C(=O)C#CC(C)(C)N(C)C)CC3)C(=O)N3CCCC(N3)C(=O)OCC(C)(C)C2)C1	LG0703-F948-PDC complex spheroid viability	IC50	> 10 µM
CC(=O)OC12COC1CC(O)C1(C)C(=O)C(O)C3=C(C)C(OC(=O)C(O)C(NC(=O)OC(C)(C)C)c4ccccc4)CC(O)(C(OC(=O)c4ccccc4)C21)C3(C)C (configuration not stated) + CCn1c(-c2cc(N3CCN(C)CC3)cnc2C(C)OC)c2c3cc(ccc31)-c1csc(n1)CC(NC(=O)C1CC1C)C(=O)N1CCCC(N1)C(=O)OCC(C)(C)C2	LG0703-F948-PDC complex spheroid viability	IC50	< 0.0316 µM
CCC(CC)c1cc(NC2CCC(N)C2)n2nccc2n1 (configuration not stated) + CCn1c(-c2cc(N3CCN(C)CC3)cnc2C(C)OC)c2c3cc(ccc31)-c1csc(n1)CC(NC(=O)C1CC1C)C(=O)N1CCCC(N1)C(=O)OCC(C)(C)C2	LG0703-F948-PDC complex spheroid viability	IC50	< 0.0316 µM

Value of measured IC50 for the entry CCN1CCN(Cc2ccc(Nc3ncc(F)c(-c4cc(F)c5nc(C)n(C(C)C)c5c4)n3)nc2)CC1 + CCn1c(-c2cc(N3CCN(C)CC3)cnc2C(C)OC)c2c3cc(ccc31)-c1csc(n1)CC(NC(=O)C1CC1C)C(=O)N1CCCC(N1)C(=O)OCC(C)(C)C2 : > 1 µM

Reported IC50 for CC(Nc1ccc2c(c1)OCCn1cc(N3C(=O)OCC3C(F)F)nc1-2)C(N)=O (configuration not stated) + CCn1c(-c2cc(N3CCN(C)CC3)cnc2C(C)OC)c2c3cc(ccc31)-c1csc(n1)CC(NC(=O)C1CC1C)C(=O)N1CCCC(N1)C(=O)OCC(C)(C)C2 was < 0.0316 µM

Consider CCN1CCN(Cc2ccc(Nc3ncc(F)c(-c4cc(F)c5nc(C)n(C(C)C)c5c4)n3)nc2)CC1 + CCn1c(-c2cccnc2C(C)OC)c2c3cc(ccc31)N1CCOC(CC(NC(=O)C(C(C)C)N(C)C(=O)C3(F)CCN(C(=O)C#CC(C)(C)N(C)C)CC3)C(=O)N3CCCC(N3)C(=O)OCC(C)(C)C2)C1 . Its measured IC50 is > 1 µM

---

Tested on: LG0703-F948-PDC complex spheroid viability
Test: Anticancer human tumor LG0703-F948-PDC cell line growth inhibition [RAS];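 further: spheroids exposed to agents for 7 days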;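 on viability, T/C: 100% = DMSO vehicle wells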
Conditions: second compound 3.16 µM; first compound 10 µM; stronger effect = lower value
result type: viability, T/C (%)
State the answer as a number, implicitly in %.

molecule	units symbol	result
CC(=O)OC12COC1CC(O)C1(C)C(=O)C(O)C3=C(C)C(OC(=O)C(O)C(NC(=O)OC(C)(C)C)c4ccccc4)CC(O)(C(OC(=O)c4ccccc4)C21)C3(C)C (configuration not stated) + C#Cc1c(F)ccc2cc(O)cc(-c3ncc4c(N5CC6CCC(C5)N6)nc(OCC56CCCN5CC(F)C6)nc4c3F)c12	%	16.1

Next molecule, please.
Lookup result for CCC(CC)c1cc(NC2CCC(N)C2)n2nccc2n1 (configuration not stated) + C#Cc1c(F)ccc2cc(O)cc(-c3ncc4c(N5CC6CCC(C5)N6)nc(OCC56CCCN5CC(F)C6)nc4c3F)c12 ; measured viability, T/C: 0.56

---

Recorded viability, T/C for the following compounds
Test system: LG0703-F948-PDC complex spheroid viability
Test: Anticancer human tumor LG0703-F948-PDC cell line growth inhibition [RAS];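 further: spheroids exposed to agents for 7 days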;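 on viability, T/C: 100% = DMSO vehicle wells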
Conditions: second compound 0.1 µM; first compound 0.0316 µM; stronger effect = lower value
Give the value in % but do not write % after it.

These recorded examples may help you get a feel for the data.
compound	units symbol	viability, T/C
NC1c2ccccc2OC12CCN(c1cnc3c(N4CCCc5ncccc54)n[nH]c3n1)CC2 (stereo unspecified) + C#Cc1c(F)ccc2cc(O)cc(-c3ncc4c(N5CC6CCC(C5)N6)nc(OCC56CCCN5CC(F)C6)nc4c3F)c12	%	48.8
CC(C)n1nc(-c2ccc3oc(N)nc3c2)c2c(N)ncnc21 + C=CC(=O)N1CCN(c2nc(OCC3CCCN3C)nc3c(F)c(-c4nc(N)cc(C)c4C(F)(F)F)c(Cl)cc23)C(C)C1	%	14.3
CC(C)NCC(C(=O)N1CCN(c2ncnc3c2C(C)CC3O)CC1)c1ccc(Cl)cc1 (stereo unspecified) + C=CC(=O)N1CCN(c2nc(OCC3CCCN3C)nc3c(F)c(-c4nc(N)cc(C)c4C(F)(F)F)c(Cl)cc23)C(C)C1	%	87.3
Nc1ccn(C2OC(CO)C(O)C2(F)F)c(=O)n1 (stereo unspecified) + C#Cc1c(F)ccc2cc(O)cc(-c3ncc4c(N5CC6CCC(C5)N6)nc(OCC56CCCN5CC(F)C6)nc4c3F)c12	%	26.9
C=CC(=O)Nc1cc(Nc2nccc(-c3cn(C)c4ccccc34)n2)c(OC)cc1N(C)CCN(C)C + C=CC(=O)N1CCN(c2nc(OCC3CCCN3C)nc3c(F)c(-c4nc(N)cc(C)c4C(F)(F)F)c(Cl)cc23)C(C)C1	%	14.8

Now take the following compound into account.
Readout viability, T/C for CC1(O)CCCC1n1c(=O)c(C(F)F)cc2cnc(NC3CCN(S(C)(=O)=O)CC3)nc21 (stereo unspecified) + C=CC(=O)N1CCN(c2nc(OCC3CCCN3C)nc3c(F)c(-c4nc(N)cc(C)c4C(F)(F)F)c(Cl)cc23)C(C)C1 , test system LG0703-F948-PDC complex spheroid viability, was 107

---

Tested on: LG0703-F948-PDC complex spheroid viability
Assay: Anticancer human tumor LG0703-F948-PDC cell line growth inhibition [RAS];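 further: spheroids exposed to agents for 7 days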;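 on viability, T/C: 100% = DMSO vehicle wells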
Settings: second compound 0.0949 µM; first compound 0.1 µM; stronger effect = lower value
Here, each record is paired with measured viability, T/C data.
Give the quantity in %, number only.

Field: example entries. Status: answers known.
compound	units symbol	viability, T/C
CCN1CCN(Cc2ccc(Nc3ncc(F)c(-c4cc(F)c5nc(C)n(C(C)C)c5c4)n3)nc2)CC1 + CCn1c(-c2cccnc2C(C)OC)c2c3cc(ccc31)N1CCOC(CC(NC(=O)C(C(C)C)N(C)C(=O)C3(F)CCN(C(=O)C#CC(C)(C)N(C)C)CC3)C(=O)N3CCCC(N3)C(=O)OCC(C)(C)C2)C1	%	90.1
CCN1CCN(Cc2ccc(Nc3ncc(F)c(-c4cc(F)c5nc(C)n(C(C)C)c5c4)n3)nc2)CC1 + CCn1c(-c2cc(N3CCN(C)CC3)cnc2C(C)OC)c2c3cc(ccc31)-c1csc(n1)CC(NC(=O)C1CC1C)C(=O)N1CCCC(N1)C(=O)OCC(C)(C)C2	%	11.3
C=CC(=O)N1CCN(c2nc(OCC3CCCN3C)nc3c(F)c(-c4nc(N)cc(C)c4C(F)(F)F)c(Cl)cc23)C(C)C1 (stereo unspecified) + CCn1c(-c2cc(N3CCN(C)CC3)cnc2C(C)OC)c2c3cc(ccc31)-c1csc(n1)CC(NC(=O)C1CC1C)C(=O)N1CCCC(N1)C(=O)OCC(C)(C)C2	%	11
NC1c2ccccc2OC12CCN(c1cnc3c(N4CCCc5ncccc54)n[nH]c3n1)CC2 (stereo unspecified) + CCn1c(-c2cc(N3CCN(C)CC3)cnc2C(C)OC)c2c3cc(ccc31)-c1csc(n1)CC(NC(=O)C1CC1C)C(=O)N1CCCC(N1)C(=O)OCC(C)(C)C2	%	4.57
CC(=O)OC12COC1CC(O)C1(C)C(=O)C(O)C3=C(C)C(OC(=O)C(O)C(NC(=O)OC(C)(C)C)c4ccccc4)CC(O)(C(OC(=O)c4ccccc4)C21)C3(C)C (stereo unspecified) + CCn1c(-c2cccnc2C(C)OC)c2c3cc(ccc31)N1CCOC(CC(NC(=O)C(C(C)C)N(C)C(=O)C3(F)CCN(C(=O)C#CC(C)(C)N(C)C)CC3)C(=O)N3CCCC(N3)C(=O)OCC(C)(C)C2)C1	%	32.7

Next:
Reported viability, T/C of CC(Nc1ccc2c(c1)OCCn1cc(N3C(=O)OCC3C(F)F)nc1-2)C(N)=O (stereo unspecified) + CCn1c(-c2cccnc2C(C)OC)c2c3cc(ccc31)N1CCOC(CC(NC(=O)C(C(C)C)N(C)C(=O)C3(F)CCN(C(=O)C#CC(C)(C)N(C)C)CC3)C(=O)N3CCCC(N3)C(=O)OCC(C)(C)C2)C1 : 64.8

The reported measurements were obtained from PubChem BioAssay AID2060890.
